Test system: VDR:RXRa (NR concentration 270 nM, RXRa partner concentration 90 nM)
test-summary: PBM binding z-score (relative to random genomic background probes); higher = stronger binding; sequences stand for … in GC…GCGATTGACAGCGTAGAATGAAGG
PBM binding z-score by entry:
quantity: PBM binding z-score

1. CGAATTAGGTCAAAGGACAGTGAAAGGCGACGTA    1.65
2. AATACAGGGTCGCTAGGCCAGAGTAGGTACGAAT    0.828
3. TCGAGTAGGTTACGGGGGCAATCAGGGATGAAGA    3.22
4. ACTAGTTGGTAAGCTGAGGTCACACACAATTCGG    3.71
5. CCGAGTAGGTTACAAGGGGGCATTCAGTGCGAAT    5.11
6. ATCGAAAGGTCGACGAGGTGAGAATACACCGTTT    5.52
7. CCTTACGGGTCTCTCCAGGTTATAGCATCGGAGT    0.117
8. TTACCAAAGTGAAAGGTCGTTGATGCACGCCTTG    1.86
9. CCGAGTAGGTTACGAGGGCGCATTCAGTGCGAAT    0.78
10. CTCGAAAGGTCGTGCTCAGGTGAGTACACCAAAC    3.6
11. CCGACTGGGGCAAAGGTTACGATACTCAGTACGA    1.61
12. ATATGTAGGTTAGGGTCATTCACAAAGTAGGGAA    4.61
13. CGAATTAGGTCACCAGGACAGTGAAGAGGTTGGA    2.06
14. CCGAGTAGGTTACGAGGGGGCATTCTGTGCGAAT    4.89
15. CCGAGTAGGTTACGAGGGGACATTCAGTGCGAAT    2.82
16. AGAATGAGGTTAACAAAGATCAGGGAAACGCTTG    1.71
17. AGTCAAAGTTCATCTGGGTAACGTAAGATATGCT    4.96
18. ATCTCTAGGTCAAAGTTCAGTGAATCCCGAGGAT    4.4
19. CTATGTAGGTTAAGGGCGTCATTCAGTTTGAAAG    0.981
20. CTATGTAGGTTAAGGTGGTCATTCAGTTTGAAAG    2.29
21. ACTATCAGGCCAAGGGTCACTCAAGATTAGTCCG    3.13
22. ATATGTAGGTTAGGTTCATTCAGAAAGTAGGGAA    4.01
23. CGAACTAGGTCAAACGACAGTGAAAGGCGACGTA    1.43
24. TAGCCTAGCTCATTCAGGGGCCAGTATAGAAAGC    -0.541
25. CGAACTATGTCAAGGACAGTGAATCTCCGCACGC    -0.248
26. CCGAGTAGGTTACGAGGGGGCATGCAGTGCGAAT    4.63

* * *

Test system: PPARg:RXRa DBDmut IVT, anti-RXR (DBD mutation: RXRa K156A/R161A, NR concentration 270 nM, RXRa partner concentration 90 nM)
test-summary: PBM binding z-score (relative to random genomic background probes); higher = stronger binding; sequences stand for … in GC…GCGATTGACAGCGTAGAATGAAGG
quantity: PBM binding z-score

1. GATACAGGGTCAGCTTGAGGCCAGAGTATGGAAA    1.23
2. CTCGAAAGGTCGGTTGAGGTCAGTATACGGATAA    -0.211
3. CCGAGTCGGTTACGAGGGGGCATTCAGTGCGAAT    0.193
4. CTAACTAGGTCACGAAAGGTCAAAGTCGAATGAC    8.88
5. ATCGTAAGGTCGTGAGGTGAGTATACAGAAAGGC    0.0684
6. TCGAGAAGGTTACGGGGGCATTCAGGGATGAAGA    3.48
